Reference source: paper PMC10434227

tested on: rVACV Nluc/GFP; assay: microbe, parasite or virus in culture; format: cell-based, vaccinia virus (VACV); settings: Orthopoxvirus vaccinia, A549, read-out: EC50 Nluc
Counter-ions that a name gives are not always drawn.
reported endpoint: pEC50
API: returns pEC50 as number; meaning -log10 of concentration in mol/L.

compound: COc1c(C)c2c(c(O)c1C/C=C(\C)CCC(=O)OCCN1CCOCC1)C(=O)OC2 [Mycophenolate mofetil, mycophenolate mofetil]
system name: rVACV Nluc/GFP
pEC50: 6.10
//
compound: CC(C)(C)[C@H]1CC[C@H](CC2=C(O)C(=O)c3ccccc3C2=O)CC1
system name: rVACV Nluc/GFP
pEC50: 5.97
//
compound: C=C(C)[C@H]1Cc2c(ccc3c2O[C@@H]2COc4cc(OC)c(OC)cc4[C@@H]2C3=O)O1
system name: rVACV Nluc/GFP
pEC50: 8.15
//
compound: CCCCCC[C@H]1C(=O)O[C@H](C)[C@H](NC(=O)c2cccc(NC=O)c2O)C(=O)O[C@@H](C)[C@@H]1OC(=O)CC(C)C [Antimycin A, antimycin A]
system name: rVACV Nluc/GFP
pEC50: 6.89
//
compound: CC[C@@H](C(=O)O)[C@@H]1O[C@@H]([C@@H](C)[C@H](O)[C@H](C)C(=O)[C@H](CC)[C@H]2O[C@]3(C=C[C@@H](O)[C@]4(CC[C@@](C)([C@H]5CC[C@](O)(CC)[C@H](C)O5)O4)O3)[C@H](C)C[C@@H]2C)[C@@H](C)C[C@@H]1C [Narasin, narasin sodium salt]
system name: rVACV Nluc/GFP
pEC50: 7.52
//
compound: FC(F)(F)c1ccc(/C=C/c2nc(COc3ccc(CCCCn4ccnn4)cc3)co2)cc1
system name: rVACV Nluc/GFP
pEC50: 7.48

// below: pEC50 requested for another compound
Request: Please give measured pEC50 of the following entry: "NC(=O)c1[nH]nc([C@@H]2O[C@H](CO)[C@@H](O)[C@H]2O)c1O"
Result: 6.62

---

tested on: rVACV Nluc/GFP; test: microbe, parasite or virus in culture; type: cell-based, vaccinia virus (VACV); details: Orthopoxvirus vaccinia, A549, read-out: EC50 Nluc
# note: exactly 800 nM is not below, so it is false; use true for EC50 strictly under it

Request: Consider "COc1c(C)c2c(c(O)c1C/C=C(\C)CCC(=O)O)C(=O)OC2" . Does its EC50 lie strictly below 800 nM?
Result: true

---

system: MPXV USA-2003 (NR-2500) clade II; assay: microbe, parasite or virus in culture; format: cell-based, monkeypox virus (MPXV); details: Monkeypox virus, A549, read-out: EC50 against MPXV
Where a name gives a salt, the structure may show the parent alone.
reported endpoint: pEC50
pEC50 is a log-scale quantity: -log10 of the concentration expressed in molar.

Known results for molecules:
molecule: CCCCCC[C@H]1C(=O)O[C@H](C)[C@H](NC(=O)c2cccc(NC=O)c2O)C(=O)O[C@@H](C)[C@@H]1OC(=O)CC(C)C [Antimycin A, antimycin A]
observed: 8.00
//
molecule: Cc1c(-c2ccc(-c3ccccc3F)cc2)nc2ccc(F)cc2c1C(=O)O [Brequinar, brequinar sodium salt hydrate]
observed: 6.80
//
molecule: NC(=O)c1[nH]nc([C@@H]2O[C@H](CO)[C@@H](O)[C@H]2O)c1O
observed: 5.47
//
molecule: O=C1c2ccccc2-n2c1nc1ccccc1c2=O
observed: 5.32
//
molecule: S=C(NCc1ccc2c(c1)OCO2)N1CCN(c2ncnc3c2oc2ccccc23)CC1
observed: 5.46

Request: Respond only with pEC50 recorded for "O=c1cnn([C@@H]2O[C@H](CO)[C@@H](O)[C@H]2O)c(=O)[nH]1"
Result: 5.62

Request: Give reported pEC50 value for CC[C@@H](C(=O)O)[C@@H]1O[C@@H]([C@@H](C)[C@H](O)[C@H](C)C(=O)[C@H](CC)[C@H]2O[C@]3(C=C[C@@H](O)[C@]4(CC[C@@](C)([C@H]5CC[C@](O)(CC)[C@H](C)O5)O4)O3)[C@H](C)C[C@@H]2C)[C@@H](C)C[C@@H]1C [Narasin, narasin sodium salt]
Result: 7.30

Request: Look up pEC50 of "COc1c(C)c2c(c(O)c1C/C=C(\C)CCC(=O)O)C(=O)OC2" and report it.
Result: 6.15

Request: Supply reported pEC50 belonging to this molecule: "NCC(=O)Nc1ccc(-n2nc(C(F)(F)F)cc2-c2ccc3c(ccc4ccccc43)c2)cc1"
Result: 5.36

Request: Look up and state reported pEC50 for "CC(C)[C@@H]1NC(=O)[C@H](C)OC(=O)[C@@H](C(C)C)NC(=O)[C@@H](C(C)C)OC(=O)[C@H](C(C)C)NC(=O)[C@H](C)OC(=O)[C@@H](C(C)C)NC(=O)[C@@H](C(C)C)OC(=O)[C@H](C(C)C)NC(=O)[C@H](C)OC(=O)[C@@H](C(C)C)NC(=O)[C@@H](C(C)C)OC1=O"
Result: 9.00

Request: Please list pEC50 recorded for the molecule "O=C(NN1C(=O)[C@@H]2[C@@H]3C=C[C@@H]([C@H]4C[C@@H]34)[C@@H]2C1=O)c1ccc(C(F)(F)F)cc1"
Result: 6.92

Request: Please list pEC50 recorded for the molecule CC[C@@]1([C@@H]2O[C@@H]([C@H]3O[C@@](O)(CO)[C@H](C)C[C@@H]3C)C[C@@H]2C)CC[C@H]([C@]2(C)CC[C@]3(C[C@H](O)[C@@H](C)[C@@H]([C@@H](C)[C@@H](OC)[C@H](C)C(=O)O)O3)O2)O1 [Monensin, monensin sodium salt]
Result: 7.30

Request: Provide only the value of recorded pEC50 for "FC(F)(F)c1ccc(/C=C/c2nc(COc3ccc(CCCCn4ccnn4)cc3)co2)cc1"
Result: 7.42

Request: Give pEC50 for "CC(C)(C)[C@H]1CC[C@H](CC2=C(O)C(=O)c3ccccc3C2=O)CC1"
Result: 5.14

---

Measured pEC50 of individual entries
test system: rVACV Nluc/Scarlet; assay: microbe, parasite or virus in culture; assay type: cell-based, vaccinia virus (VACV); conditions: read-out: EC50 Nluc
Convention used: pEC50 is expressed as -log10 of the molar concentration.

Use the examples below as a reference point.
smiles entry: CO/C=C(/C(=O)OC)c1ccccc1Oc1cc(Oc2ccccc2C#N)ncn1
pEC50: 5.21

smiles entry: S=C(NCc1ccc2c(c1)OCO2)N1CCN(c2ncnc3c2oc2ccccc23)CC1
pEC50: 5.18

smiles entry: Fc1ccc(CNc2ncnc3ccc(F)cc23)cc1
pEC50: 5.52

smiles entry: O=C1c2ccccc2-n2c1nc1ccccc1c2=O
pEC50: 6.01

Request: Recall the reported pEC50 of "O=C(NN1C(=O)[C@@H]2[C@@H]3C=C[C@@H]([C@H]4C[C@@H]34)[C@@H]2C1=O)c1ccc(C(F)(F)F)cc1" when tested on rVACV Nluc/Scarlet.
Result: 7.15

---

Here's a batch of molecules along with measured CC50 for A549 cells.

smiles entry: Fc1ccc(CNc2ncnc3ccc(F)cc23)cc1
CC50: > 50 µM

Next item in the queue.
Request: Retrieve CC50 measured for "CO/C=C(/C(=O)OC)c1ccccc1Oc1cc(Oc2ccccc2C#N)ncn1" and print it.
Result: > 450 µM

---

test: in vitro; settings: human
Counter-ions that a name gives are not always drawn.
Parameter: CC50. Scope: all listed entries.

Some compounds with known CC50 results, for comparison:
compound: COc1c(C)c2c(c(O)c1C/C=C(\C)CCC(=O)O)C(=O)OC2
reported endpoint: CC50
observed: > 150 µM

compound: CC[C@@]1([C@@H]2O[C@@H]([C@H]3O[C@@](O)(CO)[C@H](C)C[C@@H]3C)C[C@@H]2C)CC[C@H]([C@]2(C)CC[C@]3(C[C@H](O)[C@@H](C)[C@@H]([C@@H](C)[C@@H](OC)[C@H](C)C(=O)O)O3)O2)O1 [Monensin, monensin sodium salt]
reported endpoint: CC50
observed: > 50 µM

Request: Note CC50 for the compound shown: COc1c(C)c2c(c(O)c1C/C=C(\C)CCC(=O)OCCN1CCOCC1)C(=O)OC2 [Mycophenolate mofetil, mycophenolate mofetil]
Result: > 150 µM

Request: Output measured CC50 for this item: "O=C(NN1C(=O)[C@@H]2[C@@H]3C=C[C@@H]([C@H]4C[C@@H]34)[C@@H]2C1=O)c1ccc(C(F)(F)F)cc1"
Result: > 50 µM

---

test system: A549 cells
reported endpoint: CC50 (µM)
// return numeric value only (unit: µM, not printed)

molecule: CO/C=C(/C(=O)OC)c1ccccc1Oc1cc(Oc2ccccc2C#N)ncn1 [Azoxystrobin, azoxystrobin]
scale unit: µM
CC50: 27.9

Now look at this entry.
Request: Report CC50 on A549 cells for this entry: Fc1ccc(CNc2ncnc3ccc(F)cc23)cc1 [Spautin-1, spautin-1]
Result: 8
